# system: T1, cynomolgus CX3CR1 (cynomolgus monkey (Macaca fascicularis), UniProt P49238 1-355 (human entry))
# T1 construct: Overexpressed on CHO K1 cells; also called cyno CX3CR1; cyCX3CR1
# T1 chain: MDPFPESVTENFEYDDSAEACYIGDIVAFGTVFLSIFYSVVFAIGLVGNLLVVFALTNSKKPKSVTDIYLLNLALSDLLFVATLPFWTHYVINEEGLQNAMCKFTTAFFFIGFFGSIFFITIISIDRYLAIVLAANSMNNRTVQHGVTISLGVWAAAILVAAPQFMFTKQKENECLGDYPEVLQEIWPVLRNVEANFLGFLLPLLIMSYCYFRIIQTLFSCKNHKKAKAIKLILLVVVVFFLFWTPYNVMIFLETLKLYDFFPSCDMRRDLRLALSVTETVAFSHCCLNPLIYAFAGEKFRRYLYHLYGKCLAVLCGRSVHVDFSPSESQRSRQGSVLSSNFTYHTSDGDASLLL
# test_summary: flow cytometry on CHO K1 cyCX3CR1 cells, 30 uM HSA
Form field: top (one value per entry).
No unit in the answer, please; the number alone is enough.

Some entries whose results are on file:
A041600041 (VHH, Trivalent ISVD construct (two anti-CX3CR1 ISVDs, one anti-albumin ISVD), C-terminal alanine included in the entry; also called 54A12_SO (E1D)-9GS-66B02_SO-9GS-ALB23002-A) DVQLVESGGGSVQPGGSLRLSCAASGSIFSSTAMAWYRQAPGKQRDLVAVISTVGITKYADSVKGRFTISRDNAKNTVYLQMNSLRPEDTALYYCTSDARRGWDTRYWGQGTLVTVSSGGGGSGGGSEVQLVESGGGSVQPGGSLRLSCAASGSIFSSTAMAWYRQAPGKRRDLVAAINTVGVTKYADSVKGRFTISRDNAKNTVYLQMNSLRPEDTALYYCTSDPRRGWDTRYWGQGTLVTVSSGGGGSGGGSEVQLVESGGGVVQPGGSLRLSCAASGFTFRSFGMSWVRQAPGKGPEWVSSISGSGSDTLYADSVKGRFTISRDNSKNTLYLQMNSLRPEDTALYYCTIGGSLSRSSQGTLVTVSSA | 346000
A041600040 (VHH, Trivalent ISVD construct (two anti-CX3CR1 ISVDs, one anti-albumin ISVD), C-terminal alanine included in the entry; also called 66B02_SO (E1D)-9GS-54A12_SO-9GS-ALB23002-A) DVQLVESGGGSVQPGGSLRLSCAASGSIFSSTAMAWYRQAPGKRRDLVAAINTVGVTKYADSVKGRFTISRDNAKNTVYLQMNSLRPEDTALYYCTSDPRRGWDTRYWGQGTLVTVSSGGGGSGGGSEVQLVESGGGSVQPGGSLRLSCAASGSIFSSTAMAWYRQAPGKQRDLVAVISTVGITKYADSVKGRFTISRDNAKNTVYLQMNSLRPEDTALYYCTSDARRGWDTRYWGQGTLVTVSSGGGGSGGGSEVQLVESGGGVVQPGGSLRLSCAASGFTFRSFGMSWVRQAPGKGPEWVSSISGSGSDTLYADSVKGRFTISRDNSKNTLYLQMNSLRPEDTALYYCTIGGSLSRSSQGTLVTVSSA | 363000
A041600031 (VHH, Trivalent ISVD construct (two anti-CX3CR1 ISVDs, one anti-albumin ISVD), C-terminal alanine included in the entry; also called 66B02_SO (E1D)-9GS-ALB23002-9GS-54A12_SO-A) DVQLVESGGGSVQPGGSLRLSCAASGSIFSSTAMAWYRQAPGKRRDLVAAINTVGVTKYADSVKGRFTISRDNAKNTVYLQMNSLRPEDTALYYCTSDPRRGWDTRYWGQGTLVTVSSGGGGSGGGSEVQLVESGGGVVQPGGSLRLSCAASGFTFRSFGMSWVRQAPGKGPEWVSSISGSGSDTLYADSVKGRFTISRDNSKNTLYLQMNSLRPEDTALYYCTIGGSLSRSSQGTLVTVSSGGGGSGGGSEVQLVESGGGSVQPGGSLRLSCAASGSIFSSTAMAWYRQAPGKQRDLVAVISTVGITKYADSVKGRFTISRDNAKNTVYLQMNSLRPEDTALYYCTSDARRGWDTRYWGQGTLVTVSSA | 300000

Now for the binder whose top we want.
Complete the entry with top for A041600025 (VHH, Trivalent ISVD construct (two anti-CX3CR1 ISVDs, one anti-albumin ISVD), C-terminal alanine included in the entry; also called 54A12_SO (E1D)-9GS-ALB23002-9GS-54A12_SO-A) DVQLVESGGGSVQPGGSLRLSCAASGSIFSSTAMAWYRQAPGKQRDLVAVISTVGITKYADSVKGRFTISRDNAKNTVYLQMNSLRPEDTALYYCTSDARRGWDTRYWGQGTLVTVSSGGGGSGGGSEVQLVESGGGVVQPGGSLRLSCAASGFTFRSFGMSWVRQAPGKGPEWVSSISGSGSDTLYADSVKGRFTISRDNSKNTLYLQMNSLRPEDTALYYCTIGGSLSRSSQGTLVTVSSGGGGSGGGSEVQLVESGGGSVQPGGSLRLSCAASGSIFSSTAMAWYRQAPGKQRDLVAVISTVGITKYADSVKGRFTISRDNAKNTVYLQMNSLRPEDTALYYCTSDARRGWDTRYWGQGTLVTVSSA
266000
